measured.attribute: melting point

Examples from the recorded data:
## Input Fill in melting point for record `CC(C)COC(=O)Nc1ccc(C[C@H](NC(=O)[C@H]2CC[C@@](C)(C(=O)O)C2(C)C)C(=O)O)cc1`
## Output 125 to 128 °C

## Input Fill in melting point for record `CC1(C)[C@@H](C(=O)N[C@@H](Cc2ccc(NC(=O)c3c(Cl)cccc3Cl)c(Br)c2)C(=O)O)CC[C@@]1(C)C(=O)O`
## Output 150 to 152 °C

## Input Fill in melting point for record `Cc1cccc(C)c1C(=O)Nc1ccc(C[C@H](NC(=O)[C@H]2CC[C@@](C)(C(=O)O)C2(C)C)C(=O)O)cc1`
## Output 195 to 198 °C

## Input Fill in melting point for record `CC1(C)[C@@H](C(=O)N[C@H](Cc2ccc(NC(=O)c3c(Cl)cccc3Cl)cc2)C(=O)O)CC[C@@]1(C)C(=O)O`
## Output 263 to 267 °C

## Input Fill in melting point for record `CC1(C)[C@@H](C(=O)N[C@@H](Cc2ccc(NC(=O)c3c(F)cccc3F)cc2)C(=O)O)CC[C@@]1(C)C(=O)O`
## Output 150 to 152 °C

Below: the item to evaluate.
## Input Fill in melting point for record `CC1(C)[C@@H](C(=O)N[C@@H](Cc2ccc(NC(=O)c3c(Cl)cccc3Cl)cc2)C(=O)O)CC[C@@]1(C)C(N)=O`
## Output 196 to 198 °C

Each recorded value in this set is attributed to patent US6482849B1.
